Cited source: patent US11912693B2

Known Emax of a selection of molecules
# TARGET_OR_SYSTEM: UniProtKB P21453
# ASSAY_EXPLANATION: β-Arrestin2 recruitment assay (PathHunter), S1P1 CHO-K1 cells
# Format: cell-based
# CONDITIONS_USED: CHO-K1; efficacy (SPAN) normalized to fingolimod; read-out: hS1P1 B-arrestin2 SPAN
# Sequence (P21453 whole entry, looked up): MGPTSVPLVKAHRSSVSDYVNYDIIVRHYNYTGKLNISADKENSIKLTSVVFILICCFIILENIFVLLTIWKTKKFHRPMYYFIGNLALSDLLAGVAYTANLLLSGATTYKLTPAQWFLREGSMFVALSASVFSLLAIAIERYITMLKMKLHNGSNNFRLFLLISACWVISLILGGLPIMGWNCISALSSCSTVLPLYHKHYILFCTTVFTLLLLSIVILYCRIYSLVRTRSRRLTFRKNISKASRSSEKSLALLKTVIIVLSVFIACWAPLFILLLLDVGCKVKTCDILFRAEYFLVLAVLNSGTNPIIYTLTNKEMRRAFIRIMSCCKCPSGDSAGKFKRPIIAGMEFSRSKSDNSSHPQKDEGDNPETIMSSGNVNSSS
# Sequence (P32121 whole entry partner, looked up): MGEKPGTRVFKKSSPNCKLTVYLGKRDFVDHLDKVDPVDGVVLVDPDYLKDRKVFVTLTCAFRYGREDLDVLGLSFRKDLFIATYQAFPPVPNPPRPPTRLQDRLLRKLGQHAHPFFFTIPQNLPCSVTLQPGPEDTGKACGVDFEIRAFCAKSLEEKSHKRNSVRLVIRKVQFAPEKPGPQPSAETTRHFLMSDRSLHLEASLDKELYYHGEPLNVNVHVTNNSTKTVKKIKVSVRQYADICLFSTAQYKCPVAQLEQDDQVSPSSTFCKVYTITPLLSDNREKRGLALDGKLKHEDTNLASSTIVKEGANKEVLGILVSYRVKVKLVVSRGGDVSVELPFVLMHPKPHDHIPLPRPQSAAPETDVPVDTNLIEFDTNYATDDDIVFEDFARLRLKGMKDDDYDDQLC

These recorded examples may help you get a feel for the data.
mol_smiles=Cc1nccnc1-c1nc(-c2ccc3c(c2)nnn3C(C)(C)CO)no1 val="< 75%"
mol_smiles=CC(C)n1ncc2cc(-c3nc(-c4ccccc4Br)no3)ccc21 val="> 75%"
mol_smiles=CC(C)n1nnc2cc(-c3noc(-c4ccccc4N)n3)ccc21 val="< 75%"
mol_smiles=Brc1ccccc1-c1nc(-c2ccc3c(c2)nnn3Cc2cccnc2)no1 val="< 75%"
mol_smiles=OCCn1nnc2cc(-c3noc(-c4ccccc4Br)n3)ccc21 val="< 75%"

Recall the reported Emax of CC(C)n1ccc2cc(-c3nc(-c4ccccc4OC(F)(F)F)no3)ccc21 on UniProtKB P21453 and write it down.
< 75%

Recall the reported Emax of CC(C)n1ccc2cc(-c3nc(-c4ccccc4Br)no3)ccc21 on UniProtKB P21453 and write it down.
> 75%

Recall the reported Emax of CC(C)n1ncc2cc(-c3nc(-c4cccc5c4OCCC5)no3)ccc21 on UniProtKB P21453 and write it down.
> 75%

Recall the reported Emax of CCC1(CC)CC(=O)c2cc(-c3nc(-c4ccc(NC(C)=O)cc4OC(F)(F)F)no3)ccc2O1 on UniProtKB P21453 and write it down.
> 75%

====

Known hS1P1 cAMP pEC50 of a selection of molecules
# TARGET_OR_SYSTEM: human sphingosine-1-phosphate receptor 1 (S1P1) (Homo sapiens (Human))
# ASSAY_EXPLANATION: Inhibition of cAMP production (HTRF cAMP HiRange), S1P1 CHO-K1 cells
# Assay type: cell-based
# CONDITIONS_USED: inhibition of cAMP production, S1P1 CHO-K1 cells
# Sequence (P21453 whole entry, looked up): as the sequence (P21453 whole entry, looked up) above

These recorded examples may help you get a feel for the data.
molecule=COc1ccc2nc(-c3ccc4c(c3)nnn4CC(C)C)oc2c1 val=<6.5
molecule=COc1ccccc1-c1csc(-c2ccc3c(ccn3C(C)C)n2)n1 val=<6.5
molecule=CCC1(CC)CC(=O)c2cc(-c3nc(-c4cncc(C(F)(F)F)c4)no3)ccc2O1 val=<6.5
molecule=CCC1(CC)CC(=O)c2cc(-c3nc(-c4cncc(NC(C)=O)c4)no3)ccc2O1 val=>6.5
molecule=CCC1(CC)CC(=O)c2cc(-c3nc(-c4cncc(S(N)(=O)=O)c4)no3)ccc2O1 val=>6.5
molecule=COc1ccccc1-c1nc(-c2ccc3c(c2)nnn3C(C)C)ns1 val=>6.5
molecule=COc1cccc(F)c1-c1noc(-c2ccc3c(cnn3C(C)C)c2)n1 val=<6.5
molecule=CC(C)n1nnc2cc(-c3nsc(-c4ccccc4O)n3)ccc21 val=>6.5
molecule=COc1ccccc1-c1noc(-c2ccc3c(c2)nnn3C2CC2)n1 val=>6.5
molecule=CCC1(CC)CC(=O)c2cc(-c3nc(-c4cncc(O)c4)no3)ccc2O1 val=>6.5

Next molecule, please.
Please indicate hS1P1 cAMP pEC50 recorded for COc1ccccc1-c1nc(-c2ccc3c(c2)nnn3CC(C)(C)CO)no1
<6.5

====

# TARGET_OR_SYSTEM: human sphingosine-1-phosphate receptor 3 (S1P3) (Homo sapiens (Human))
# Sequence (Q99500 whole entry): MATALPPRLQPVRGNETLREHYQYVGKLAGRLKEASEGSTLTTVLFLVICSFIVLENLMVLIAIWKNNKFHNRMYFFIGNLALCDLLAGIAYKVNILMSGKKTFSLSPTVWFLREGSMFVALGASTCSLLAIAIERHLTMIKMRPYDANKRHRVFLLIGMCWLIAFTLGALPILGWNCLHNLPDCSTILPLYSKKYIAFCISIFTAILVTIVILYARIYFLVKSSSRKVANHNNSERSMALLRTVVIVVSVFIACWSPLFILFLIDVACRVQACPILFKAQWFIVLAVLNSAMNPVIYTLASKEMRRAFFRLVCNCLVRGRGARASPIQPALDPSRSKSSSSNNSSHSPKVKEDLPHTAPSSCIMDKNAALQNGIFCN
# ASSAY_EXPLANATION: Inhibition of cAMP production (HTRF), S1P3 CHO-K1 cells
# Type: cell-based
# CONDITIONS_USED: CHO-K1; efficacy normalized to fingolimod; read-out: hS1P3 cAMP SPAN
MEASUREMENT_TYPE: Emax

These recorded examples may help you get a feel for the data.
mol_smiles=CC(C)Nc1ccc(-c2nc(-c3ccc4c(c3)CCC(=O)N4)no2)cc1C#N measurement_type=Emax val="< 50%"
mol_smiles=C=CCNc1ccc(-c2nc(-c3ccc4[nH]ncc4c3)no2)cc1C#N measurement_type=Emax val="> 50%"
mol_smiles=CCC1(CC)CC(=O)c2cc(-c3nc(-c4ccc(NS(C)(=O)=O)cc4)no3)ccc2O1 measurement_type=Emax val="< 50%"
mol_smiles=Cc1ccccc1-c1noc(-c2ccc3c(c2)nnn3C(C)C)n1 measurement_type=Emax val="< 50%"
mol_smiles=CC(C)n1nnc2cc(-c3nc(-c4ccncc4C(F)(F)F)no3)ccc21 measurement_type=Emax val="< 50%"
mol_smiles=C=CCNc1ccc(-c2nc(-c3ccc4[nH]cnc4c3)no2)cc1C#N measurement_type=Emax val="> 50%"
mol_smiles=CCC1(CC)CC(=O)c2cc(-c3nc(-c4ccncc4OC)no3)ccc2O1 measurement_type=Emax val="< 50%"
mol_smiles=COc1ccccc1-c1coc(-c2ccc3c(c2)nnn3C(C)C)n1 measurement_type=Emax val="< 50%"

Please indicate Emax recorded for CCC1(CC)CC(=O)c2cc(-c3nc(-c4ccc(C(=O)NC)cc4)no3)ccc2O1
< 50%

Please indicate Emax recorded for CCC1(CC)CC(=O)c2cc(-c3nc(-c4cccnc4OC)no3)ccc2O1
< 50%

Please indicate Emax recorded for CCC1(CC)CC(=O)c2cc(-c3nc(-c4cccnc4)no3)ccc2O1
< 50%

Please indicate Emax recorded for C=CCNc1ccc(-c2nc(-c3ccc(NS(C)(=O)=O)cc3)no2)cc1C#N
> 50%
